SUBJECT OF TEST: T1, human PDGFRb.hFc (human)
T1 construct: Soluble dimeric construct with human Fc; also called hPDGFRb.hFc
ASSAY EXPLANATION: SPR, mAb captured, 37 C
EXPERIMENTAL ENDPOINT: Kd (nM)
Report the figure in nM without appending any unit label.

Sample answers from the record:
BINDER	Kd (nM)
H4H3102S (antibody, human IgG4, V domains shown, human IgG4 Fc (H4H prefix)) VH: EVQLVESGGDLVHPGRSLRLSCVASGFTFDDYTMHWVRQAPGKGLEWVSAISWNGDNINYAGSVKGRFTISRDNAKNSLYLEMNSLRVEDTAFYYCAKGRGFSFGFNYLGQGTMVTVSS VL: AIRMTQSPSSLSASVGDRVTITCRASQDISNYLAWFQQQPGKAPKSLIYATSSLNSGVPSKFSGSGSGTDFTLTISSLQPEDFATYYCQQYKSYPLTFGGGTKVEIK	0.76
H4H3095S (antibody, human IgG4, V domains shown, human IgG4 Fc (H4H prefix)) VH: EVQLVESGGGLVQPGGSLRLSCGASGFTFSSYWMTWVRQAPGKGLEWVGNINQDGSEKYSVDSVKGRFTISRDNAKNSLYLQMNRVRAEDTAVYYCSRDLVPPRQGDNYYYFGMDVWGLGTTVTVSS VL: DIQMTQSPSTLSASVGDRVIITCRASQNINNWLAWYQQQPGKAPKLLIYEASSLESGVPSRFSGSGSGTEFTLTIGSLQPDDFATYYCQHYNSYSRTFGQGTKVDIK	1.67
H4H3094P (antibody, human IgG4, V domains shown, also called H4H3394P) VH: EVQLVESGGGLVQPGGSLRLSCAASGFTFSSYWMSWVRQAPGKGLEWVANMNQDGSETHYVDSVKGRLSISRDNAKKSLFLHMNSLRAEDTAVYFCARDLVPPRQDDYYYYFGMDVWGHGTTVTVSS VL: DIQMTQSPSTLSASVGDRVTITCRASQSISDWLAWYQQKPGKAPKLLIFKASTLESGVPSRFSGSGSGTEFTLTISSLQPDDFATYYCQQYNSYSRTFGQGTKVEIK	0.877

# input Determine its reported Kd: H4H3104S (antibody, human IgG4, V domains shown, human IgG4 Fc (H4H prefix)) VH: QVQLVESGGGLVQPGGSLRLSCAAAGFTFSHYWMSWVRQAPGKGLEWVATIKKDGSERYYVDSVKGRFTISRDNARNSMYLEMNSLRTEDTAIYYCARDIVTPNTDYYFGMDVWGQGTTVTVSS VL: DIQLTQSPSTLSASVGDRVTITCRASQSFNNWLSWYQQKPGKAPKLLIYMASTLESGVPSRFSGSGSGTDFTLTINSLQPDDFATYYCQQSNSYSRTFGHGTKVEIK
# output 0.606

Taken from patent US20170210813A1.
